Test system: ASPC-1 tumor-bearing mice
Assay: Biodistribution of radionuclide labeled complexes in ASPC-1 tumor-bearing mice
Type: in vivo, BALB/c nude mice
Conditions: Kidney, 72 h
Class 1: % ID/g (72 h) Kidney at least 1 % ID/g. Class -1: % ID/g (72 h) Kidney below 1 % ID/g.

A selection of reference data follows.
{"COMPOUND": "COc1cccc(OC)c1-c1cc(C(=O)NC2(C(=O)O)C3CC4CC(C3)CC2C4)nn1-c1ccc(NC(=O)CCCN(C)CCCN(C)C(=O)CN2CCN(CC(=O)[O-])CCN(CC(=O)[O-])CCN(CC(=O)[O-])CC2)cc1C(C)C.[177Lu+3] (stereo not drawn) [^177Lu-I-5]", "ANSWER_LABEL": 1}
{"COMPOUND": "COc1cccc(OC)c1-c1cc(C(=O)NC2(C(=O)O)C3CC4CC(C3)CC2C4)nn1-c1ccc(C(=O)N(C)CCCN(C)CCCN(C)C(=O)CN2CCN(CC(=O)[O-])CCN(CC(=O)[O-])CCN(CC(=O)[O-])CC2)cc1C(C)C.[177Lu+3] (stereo not drawn) [^177Lu-C-2, reference compound]", "ANSWER_LABEL": -1}

Dear colleague, could you confirm whether COc1cccc(OC)c1-c1cc(C(=O)NC2(C(=O)O)C3CC4CC(C3)CC2C4)nn1-c1ccc(N(C)CCCN(C)CCCN(C)C(=O)CN2CCN(CC(=O)[O-])CCN(CC(=O)[O-])CCN(CC(=O)[O-])CC2)cc1C(C)C.[177Lu+3] (stereo not drawn) [^177Lu-I-1] has % ID/g (72 h) Kidney at or above 1 % ID/g?
1

Dear colleague, could you confirm whether COc1cccc(OC)c1-c1cc(C(=O)NC2(C(=O)O)C3CC4CC(C3)CC2C4)nn1-c1ccc(NCCCN(C)CCCNC(=O)CN2CCN(CC(=O)[O-])CCN(CC(=O)[O-])CCN(CC(=O)[O-])CC2)cc1C(C)C.[177Lu+3] (stereo not drawn) [^177Lu-I-2] has % ID/g (72 h) Kidney at or above 1 % ID/g?
1

Dear colleague, could you confirm whether COc1cccc(OC)c1-c1cc(C(=O)NC2(C(=O)O)C3CC4CC(C3)CC2C4)nn1-c1ccc(OCCCN(C)CCCN(C)C(=O)CN2CCN(CC(=O)[O-])CCN(CC(=O)[O-])CCN(CC(=O)[O-])CC2)cc1C(C)C.[177Lu+3] (stereo not drawn) [^177Lu-I-7] has % ID/g (72 h) Kidney at or above 1 % ID/g?
-1

Dear colleague, could you confirm whether COc1cccc(OC)c1-c1cc(C(=O)NC2(C(=O)O)C3CC4CC(C3)CC2C4)nn1-c1ccc(NCCOCCOCCNC(=O)CN2CCN(CC(=O)[O-])CCN(CC(=O)[O-])CCN(CC(=O)[O-])CC2)cc1C(C)C.[177Lu+3] (stereo not drawn) [^177Lu-I-10] has % ID/g (72 h) Kidney at or above 1 % ID/g?
-1

----------
Exercise: for every item that follows, state its recorded % ID/g (4 h) Heart.
Test system: ASPC-1 tumor-bearing mice
Test: Biodistribution of radionuclide labeled complexes in ASPC-1 tumor-bearing mice
Assay type: in vivo, BALB/c nude mice
Conditions: Heart, 4 h
One number for each entry, in % ID/g.

Example molecules with recorded % ID/g (4 h) Heart:
{"MOLECULE": "COc1cccc(OC)c1-c1cc(C(=O)NC2(C(=O)O)C3CC4CC(C3)CC2C4)nn1-c1ccc(SCCCN(C)CCCN(C)C(=O)CN2CCN(CC(=O)[O-])CCN(CC(=O)[O-])CCN(CC(=O)[O-])CC2)cc1C(C)C.[177Lu+3] (stereo not shown) [^177Lu-I-8]", "UNITS_TEXT": "% ID/g", "% ID/g (4 h) Heart": 2.39}
{"MOLECULE": "COc1cccc(OC)c1-c1cc(C(=O)NC2(C(=O)O)C3CC4CC(C3)CC2C4)nn1-c1ccc(NCCOCCOCCNC(=O)CN2CCN(CC(=O)[O-])CCN(CC(=O)[O-])CCN(CC(=O)[O-])CC2)cc1C(C)C.[177Lu+3] (stereo not shown) [^177Lu-I-10]", "UNITS_TEXT": "% ID/g", "% ID/g (4 h) Heart": 0.41}
{"MOLECULE": "COc1cccc(OC)c1-c1cc(C(=O)NC2(C(=O)O)C3CC4CC(C3)CC2C4)nn1-c1ccc(NC(=O)CCCN(C)CCCN(C)C(=O)CN2CCN(CC(=O)[O-])CCN(CC(=O)[O-])CCN(CC(=O)[O-])CC2)cc1C(C)C.[177Lu+3] (stereo not shown) [^177Lu-I-5]", "UNITS_TEXT": "% ID/g", "% ID/g (4 h) Heart": 2.82}

Record % ID/g (4 h) Heart for all entries; do not skip any.
1. COc1cccc(OC)c1-c1cc(C(=O)NC2(C(=O)O)C3CC4CC(C3)CC2C4)nn1-c1ccc(NCCCN(C)CCCNC(=O)CN2CCN(CC(=O)[O-])CCN(CC(=O)[O-])CCN(CC(=O)[O-])CC2)cc1C(C)C.[177Lu+3] (stereo not shown) [^177Lu-I-2]
2. COc1cccc(OC)c1-c1cc(C(=O)NC2(C(=O)O)C3CC4CC(C3)CC2C4)nn1-c1ccc(C(=O)N(C)CCCN(C)CCCN(C)C(=O)CN2CCN(CC(=O)[O-])CCN(CC(=O)[O-])CCN(CC(=O)[O-])CC2)cc1C(C)C.[177Lu+3] (stereo not shown) [^177Lu-C-2, reference compound]
3. COc1cccc(OC)c1-c1cc(C(=O)NC2(C(=O)O)C3CC4CC(C3)CC2C4)nn1-c1ccc(OCCCN(C)CCCN(C)C(=O)CN2CCN(CC(=O)[O-])CCN(CC(=O)[O-])CCN(CC(=O)[O-])CC2)cc1C(C)C.[177Lu+3] (stereo not shown) [^177Lu-I-7]

1. 3.78
2. 1.72
3. 0.58

Lookup result for COc1cccc(OC)c1-c1cc(C(=O)NC2(C(=O)O)C3CC4CC(C3)CC2C4)nn1-c1ccc(N(C)CCCN(C)CCCN(C)C(=O)CN2CCN(CC(=O)[O-])CCN(CC(=O)[O-])CCN(CC(=O)[O-])CC2)cc1C(C)C.[177Lu+3] (stereo not shown) [^177Lu-I-1] ; measured % ID/g (4 h) Heart: 0.68
